Hey, just so you know, these numbers are from ChEMBL document CHEMBL5365547.

Listing of recorded IC50 by entry.
# Target Of Assay: Procollagen-lysine,2-oxoglutarate 5-dioxygenase 2 (Homo sapiens, UniProt O00469)
# Sequence (O00469 whole entry): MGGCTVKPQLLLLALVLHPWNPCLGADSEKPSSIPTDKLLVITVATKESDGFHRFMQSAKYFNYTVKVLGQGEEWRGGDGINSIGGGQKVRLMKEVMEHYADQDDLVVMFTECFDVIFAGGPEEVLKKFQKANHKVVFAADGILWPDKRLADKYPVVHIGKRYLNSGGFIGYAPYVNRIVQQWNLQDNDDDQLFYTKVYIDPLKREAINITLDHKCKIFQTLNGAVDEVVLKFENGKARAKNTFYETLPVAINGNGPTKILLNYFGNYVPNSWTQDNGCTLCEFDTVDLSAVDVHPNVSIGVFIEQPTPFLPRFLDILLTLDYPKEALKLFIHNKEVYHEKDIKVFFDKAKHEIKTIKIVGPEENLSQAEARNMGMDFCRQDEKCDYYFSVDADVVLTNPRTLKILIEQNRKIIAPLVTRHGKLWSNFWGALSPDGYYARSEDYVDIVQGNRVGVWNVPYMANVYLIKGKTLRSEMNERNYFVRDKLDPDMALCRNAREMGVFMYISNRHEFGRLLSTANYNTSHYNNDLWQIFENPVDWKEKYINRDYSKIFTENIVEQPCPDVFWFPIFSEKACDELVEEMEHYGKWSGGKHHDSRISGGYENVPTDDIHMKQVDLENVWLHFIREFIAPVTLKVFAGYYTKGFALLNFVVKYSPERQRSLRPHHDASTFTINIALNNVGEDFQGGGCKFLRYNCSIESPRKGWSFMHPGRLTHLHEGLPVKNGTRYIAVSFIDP
# Assay Protocol: Inhibition of human recombinant LH2 expressed in CHO cells incubated for 30 mins by luciferase-based Succinate-GloTM JmjC Demethylase/Hydroxylase Assay
# Format: cell-based
# Protocol Conditions: read-out: IC50

Completed entries (count: 5):
{"Molecule": "O=C(CC(=O)c1cccnc1)c1ccc([N+](=O)[O-])cc1", "Target Of Assay": "Procollagen-lysine,2-oxoglutarate 5-dioxygenase 2 (Homo sapiens, UniProt O00469)", "Measure": "IC50", "Assay Value": "> 10 µM"}
{"Molecule": "O=C(CC(=O)c1ccncc1)c1ccccc1", "Target Of Assay": "Procollagen-lysine,2-oxoglutarate 5-dioxygenase 2 (Homo sapiens, UniProt O00469)", "Measure": "IC50", "Assay Value": "1 µM"}
{"Molecule": "O=C(c1cccnc1)C1CCc2cc(F)ccc2C1=O (centres undefined)", "Target Of Assay": "Procollagen-lysine,2-oxoglutarate 5-dioxygenase 2 (Homo sapiens, UniProt O00469)", "Measure": "IC50", "Assay Value": "> 10 µM"}
{"Molecule": "O=C(CC(=O)c1cccnc1)c1ccccc1", "Target Of Assay": "Procollagen-lysine,2-oxoglutarate 5-dioxygenase 2 (Homo sapiens, UniProt O00469)", "Measure": "IC50", "Assay Value": "5 µM"}
{"Molecule": "O=C(CC(=O)C(F)(F)F)c1ccc([N+](=O)[O-])cc1", "Target Of Assay": "Procollagen-lysine,2-oxoglutarate 5-dioxygenase 2 (Homo sapiens, UniProt O00469)", "Measure": "IC50", "Assay Value": "> 10 µM"}

Ask: Suppose we examine the molecule CN1CCN(c2cccc(-c3cc(-c4ccncc4)n[nH]3)c2)CC1 ; what IC50 value has been reported?
Reply: > 10 µM

Ask: Similarly, O=C(CC(=O)c1nnn[nH]1)c1cccc(N2CCOCC2)c1 ?
Reply: > 10 µM

Ask: Similarly, CN1CCN(c2cccc(C(=O)CC(=O)c3nnn[nH]3)c2)CC1 ?
Reply: > 10 µM

Ask: Similarly, c1cc(-c2cc(-c3ccncc3)n[nH]2)cc(N2CCOCC2)c1 ?
Reply: > 10 µM

----------
# Target Of Assay: Multifunctional procollagen lysine hydroxylase and glycosyltransferase LH3 (Homo sapiens, UniProt O60568)
# Sequence (O60568 whole entry): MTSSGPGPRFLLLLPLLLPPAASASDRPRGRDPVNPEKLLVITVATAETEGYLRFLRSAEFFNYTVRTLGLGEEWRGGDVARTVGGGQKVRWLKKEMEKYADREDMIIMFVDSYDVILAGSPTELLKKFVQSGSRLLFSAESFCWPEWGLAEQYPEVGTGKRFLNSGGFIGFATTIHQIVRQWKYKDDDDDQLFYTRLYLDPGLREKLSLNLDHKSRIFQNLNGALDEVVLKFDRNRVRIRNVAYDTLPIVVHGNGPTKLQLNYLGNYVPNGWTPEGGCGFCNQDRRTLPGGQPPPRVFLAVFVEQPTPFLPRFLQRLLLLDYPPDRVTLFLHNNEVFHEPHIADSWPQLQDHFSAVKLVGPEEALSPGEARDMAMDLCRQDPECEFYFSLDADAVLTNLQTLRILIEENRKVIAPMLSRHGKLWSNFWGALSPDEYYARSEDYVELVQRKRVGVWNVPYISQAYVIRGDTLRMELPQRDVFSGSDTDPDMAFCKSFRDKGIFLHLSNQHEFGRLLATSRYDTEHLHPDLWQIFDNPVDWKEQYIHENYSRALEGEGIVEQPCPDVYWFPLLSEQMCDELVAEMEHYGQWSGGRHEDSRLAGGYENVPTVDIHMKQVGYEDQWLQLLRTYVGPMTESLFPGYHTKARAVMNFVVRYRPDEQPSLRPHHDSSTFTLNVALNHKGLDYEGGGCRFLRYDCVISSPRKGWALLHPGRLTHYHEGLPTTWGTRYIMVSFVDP
# Assay Protocol: Inhibition of human recombinant LH3 expressed in CHO cells incubated for 30 mins by luciferase-based Succinate-GloTM JmjC Demethylase/Hydroxylase Assay
Measure: pIC50
In textbook form, pIC50 equals minus log to base ten of the concentration in mol/L.

Ask: Suppose we examine the compound O=C(CC(=O)c1ccncc1)c1ccccc1 ; what pIC50 value has been reported?
Reply: 5.28

----------
# Target Of Assay: Procollagen-lysine,2-oxoglutarate 5-dioxygenase 1 (Homo sapiens, UniProt Q02809)
# Sequence (Q02809 whole entry): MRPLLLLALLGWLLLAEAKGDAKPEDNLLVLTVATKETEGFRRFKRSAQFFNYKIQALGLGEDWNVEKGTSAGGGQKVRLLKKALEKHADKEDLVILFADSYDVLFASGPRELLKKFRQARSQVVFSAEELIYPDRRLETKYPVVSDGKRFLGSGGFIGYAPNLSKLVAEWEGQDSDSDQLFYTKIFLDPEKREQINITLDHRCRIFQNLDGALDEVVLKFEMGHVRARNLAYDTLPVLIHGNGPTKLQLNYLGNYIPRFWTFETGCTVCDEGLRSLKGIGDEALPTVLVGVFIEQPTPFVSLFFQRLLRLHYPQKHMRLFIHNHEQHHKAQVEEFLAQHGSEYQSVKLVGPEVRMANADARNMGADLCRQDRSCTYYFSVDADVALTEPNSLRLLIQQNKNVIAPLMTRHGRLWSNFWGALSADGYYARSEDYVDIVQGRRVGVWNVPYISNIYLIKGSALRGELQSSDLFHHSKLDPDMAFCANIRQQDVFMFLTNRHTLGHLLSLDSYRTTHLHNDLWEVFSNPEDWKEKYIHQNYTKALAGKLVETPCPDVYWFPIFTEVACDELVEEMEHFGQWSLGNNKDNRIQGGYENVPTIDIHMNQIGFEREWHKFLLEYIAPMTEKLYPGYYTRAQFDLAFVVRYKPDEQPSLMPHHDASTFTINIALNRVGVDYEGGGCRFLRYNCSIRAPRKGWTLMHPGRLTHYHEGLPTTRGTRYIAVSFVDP
# Assay Protocol: Inhibition of human recombinant LH1 expressed in CHO cells incubated for 30 mins by luciferase-based Succinate-GloTM JmjC Demethylase/Hydroxylase Assay
Measure: pIC50
In textbook form, pIC50 equals minus log to base ten of the concentration in mol/L.

Ask: Suppose we examine the compound O=C(CC(=O)c1ccncc1)c1ccccc1 ; what pIC50 value has been reported?
Reply: 5.19
